Target: Sonic hedgehog protein (Mus musculus)
Assay: Inhibition of SHH in mouse C3H10T1/2 cells by Gli-luciferase reporter gene assay
reported.property: IC50 (nM)

O=C(Nc1ccc(Cl)c(-c2ccccn2)c1)c1cccc(Cl)c1 = 1500

P. O=C(Nc1ccc(Cl)c(-c2ccccn2)c1)c1ccc(Cl)cc1
Q. Cc1nc(C(F)(F)F)ccc1C(=O)Nc1ccc(Cl)c(-c2ccccn2)c1
R. Cc1nc(C(F)(F)F)ccc1C(=O)Nc1ccc(Cl)c(-c2nc3ccccc3s2)c1
S. Cc1nc(C(F)(F)F)ccc1C(=O)Nc1ccc(Cl)c(-c2ncccn2)c1
Input: Which order do these items take when sorted by rising IC50? List them. Answer format: the labels, in the requested order.
Output: Q, R, P, S

----------
Target: Sonic hedgehog protein (Mus musculus, UniProt Q62226)
Sequence (Q62226 25-198 limits assumed): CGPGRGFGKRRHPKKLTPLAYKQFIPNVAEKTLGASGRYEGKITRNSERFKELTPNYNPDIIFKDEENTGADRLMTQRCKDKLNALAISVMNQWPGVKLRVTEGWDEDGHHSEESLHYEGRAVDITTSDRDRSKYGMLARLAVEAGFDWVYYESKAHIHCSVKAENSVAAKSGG
Assay: Inhibition of SHH in mouse C3H10T1/2 cells by Gli-luciferase reporter gene assay
reported.property: IC50 (µM)

O=C(Nc1ccc(Cl)c(-c2ccccn2)c1)c1ccccc1Cl = 0.11
Cc1nc(C(F)(F)F)ccc1C(=O)Nc1ccc(Cl)c(-c2cc3ccccn3n2)c1 = 0.17
Cc1nc(C(F)(F)F)ccc1C(=O)Nc1ccc(Cl)c(-c2cnc3ccccc3n2)c1 = 0.052
O=C(Nc1ccc(Cl)c(-c2ccccn2)c1)c1ccccn1 = 3
CS(=O)(=O)c1ccc(C(=O)Nc2ccc(Cl)c(-c3ccccn3)c2)cc1 = 0.04

a. Cc1nc(C(F)(F)F)ccc1C(=O)Nc1ccc(Cl)c(-c2nc3ccccc3n2C)c1
b. Cc1nc(C(F)(F)F)ccc1C(=O)Nc1ccc(Cl)c(-c2nc3c(n2C)CCCC3)c1
c. Cc1nc(C(F)(F)F)ccc1C(=O)Nc1ccc(Cl)c(-n2cc3ccccc3n2)c1
Input: Which order do these items take when sorted by rising IC50? List them. Answer format: the labels, in the requested order.
Output: a, c, b

1. Cc1nc(C(F)(F)F)ccc1C(=O)Nc1ccc(Cl)c(-c2cn3ccsc3n2)c1
2. Cc1nc(C(F)(F)F)ccc1C(=O)Nc1ccc(Cl)c(C(=O)Nc2ccccc2)c1
Input: Could you kindly indicate whether 1 or 2 has the higher IC50 value? // return label of chosen record
Output: 1
(1: 0.2 µM, 2: 0.14 µM)

----------
Target: Sonic hedgehog protein (Mus musculus, UniProt Q62226)
Assay: Inhibition of SHH in mouse C3H10T1/2 cells by Gli-luciferase reporter gene assay
reported.property: IC50 (nM)

Cc1nc(C(F)(F)F)ccc1C(=O)Nc1ccc(Cl)c(-c2cccnc2)c1 = 10000
O=C(Nc1ccc(Cl)c(-c2ccccn2)c1)c1cccnc1 = 600

1. Cc1nc(C(F)(F)F)ccc1C(=O)Nc1ccc(Cl)c(-c2cc3ccccn3c2)c1
2. Cc1nc(C(F)(F)F)ccc1C(=O)Nc1ccc(Cl)c(-c2ccn(C)n2)c1
Input: Smaller IC50 value, 1 vs 2 ? // return label of chosen record
Output: 2
(2: 550 nM, 1: 4200 nM)

----------
Biological target: Sonic hedgehog protein (Mus musculus, UniProt Q62226)
Assay: Inhibition of SHH in mouse C3H10T1/2 cells by Gli-luciferase reporter gene assay
pIC50: −log10 of the molar value.
reported.property: pIC50

Study these solved cases before continuing.
Cc1nc(C(F)(F)F)ccc1C(=O)Nc1ccc(Cl)c(-c2cnccn2)c1 = 5.77
Cc1nc(C(F)(F)F)ccc1C(=O)Nc1ccc(Cl)c(-n2cccn2)c1 = 6.35
CS(=O)(=O)c1cccc(C(=O)Nc2ccc(Cl)c(-c3ccccn3)c2)c1 = 6.92

a. O=C(Nc1ccc(Cl)c(-c2ccccn2)c1)c1ccncc1
b. Cc1nc(C(F)(F)F)ccc1C(=O)Nc1ccc(Cl)c(-c2nc3ccccc3[nH]2)c1
Input: Could you kindly indicate whether a or b has the higher pIC50 value? // return label of chosen record
Output: b

1. Cc1ccc(C(=O)Nc2ccc(Cl)c(-c3ccccn3)c2)c(C)n1
2. O=C(Nc1ccc(Cl)c(-c2ccccn2)c1)c1ccccc1
Input: Could you kindly indicate whether 1 or 2 has the higher pIC50 value? // return label of chosen record
Output: 1

I. Cc1c[nH]c(-c2cc(NC(=O)c3ccc(C(F)(F)F)nc3C)ccc2Cl)n1
II. Cc1nc(C(F)(F)F)ccc1C(=O)Nc1ccc(Cl)c(-c2ccncc2)c1
III. Cc1nc(C(F)(F)F)ccc1C(=O)Nc1ccc(Cl)c(-c2cc[nH]n2)c1
IV. Cc1nc(C(F)(F)F)ccc1C(=O)Nc1ccc(Cl)c(-c2cc3ccccc3[nH]2)c1
Input: Which order do these items take when sorted by rising pIC50? List them. Answer format: the labels, in the requested order.
Output: III, II, IV, I
(III: 5.05, II: 5.62, IV: 6.30, I: 6.59)
